condition_summary: 293 K; 101.33 kPa; Liquid; Falling or rolling sphere viscometry
viscosity under 60 mPa·s gets true, anything at or over 60 mPa·s gets false.

Data request: Please let me know if CCCCCCCCCCn1cc[n+](C)c1.O=S(=O)([N-]S(=O)(=O)C(F)(F)F)C(F)(F)F shows viscosity below 60 mPa·s.
Data returned: false

Data request: // next record CCn1cc[n+](C)c1.O=S(=O)([N-]S(=O)(=O)C(F)(F)F)C(F)(F)F
Data returned: true

Data request: // next record CCCCCC[n+]1ccn(C)c1.O=S(=O)([N-]S(=O)(=O)C(F)(F)F)C(F)(F)F
Data returned: false

Data request: // next record CCCn1cc[n+](C)c1.O=S(=O)([N-]S(=O)(=O)C(F)(F)F)C(F)(F)F
Data returned: true

Data request: // next record CCCCCn1cc[n+](C)c1.O=S(=O)([N-]S(=O)(=O)C(F)(F)F)C(F)(F)F
Data returned: false

Data request: // next record CCCC[n+]1ccn(C)c1.O=S(=O)([N-]S(=O)(=O)C(F)(F)F)C(F)(F)F
Data returned: false

====

I'd be grateful if you could share measured viscosity for these entries.
condition_summary: 288 K; 101.33 kPa; Liquid; Concentric cylinders viscometry
# unit: mPa·s | format: bare number

Data request: For CCCCCC[n+]1ccn(C)c1.O=S(=O)([N-]S(=O)(=O)C(F)(F)F)C(F)(F)F , what is its reported viscosity?
Data returned: 117.29

Data request: // next record CCn1cc[n+](C)c1.O=S(=O)([N-]S(=O)(=O)C(F)(F)F)C(F)(F)F
Data returned: 48.47

Data request: // next record CCCCCCCCn1cc[n+](C)c1.O=S(=O)([N-]S(=O)(=O)C(F)(F)F)C(F)(F)F
Data returned: 159.11

Data request: // next record CCCCCCCCCCCCn1cc[n+](C)c1.O=S(=O)([N-]S(=O)(=O)C(F)(F)F)C(F)(F)F
Data returned: 277.46

Data request: // next record CCCC[n+]1ccn(C)c1.O=S(=O)([N-]S(=O)(=O)C(F)(F)F)C(F)(F)F
Data returned: 80.16

Data request: // next record CCCCCCCCCCn1cc[n+](C)c1.O=S(=O)([N-]S(=O)(=O)C(F)(F)F)C(F)(F)F
Data returned: 210.53

Data request: // next record CCCCCCCn1cc[n+](C)c1.O=S(=O)([N-]S(=O)(=O)C(F)(F)F)C(F)(F)F
Data returned: 136.42

Data request: // next record CCCCCn1cc[n+](C)c1.O=S(=O)([N-]S(=O)(=O)C(F)(F)F)C(F)(F)F
Data returned: 93.65

Data request: // next record CCCn1cc[n+](C)c1.O=S(=O)([N-]S(=O)(=O)C(F)(F)F)C(F)(F)F
Data returned: 71.78

====

condition_summary: 313 K; 101.33 kPa; Liquid; Falling or rolling sphere viscometry
viscosity under 30 mPa·s gets rule met, anything at or over 30 mPa·s gets rule not met.

Data request: Please let me know if CCCCCn1cc[n+](C)c1.O=S(=O)([N-]S(=O)(=O)C(F)(F)F)C(F)(F)F shows viscosity below 30 mPa·s.
Data returned: rule not met

Data request: // next record CCn1cc[n+](C)c1.O=S(=O)([N-]S(=O)(=O)C(F)(F)F)C(F)(F)F
Data returned: rule met

Data request: // next record CCCCCCCCCCn1cc[n+](C)c1.O=S(=O)([N-]S(=O)(=O)C(F)(F)F)C(F)(F)F
Data returned: rule not met

Data request: // next record CCCn1cc[n+](C)c1.O=S(=O)([N-]S(=O)(=O)C(F)(F)F)C(F)(F)F
Data returned: rule met

Data request: // next record CCCC[n+]1ccn(C)c1.O=S(=O)([N-]S(=O)(=O)C(F)(F)F)C(F)(F)F
Data returned: rule met

Data request: // next record CCCCCC[n+]1ccn(C)c1.O=S(=O)([N-]S(=O)(=O)C(F)(F)F)C(F)(F)F
Data returned: rule not met
